Assay: Plasma concentration in CD-1 mouse xenografted with human OVCAR-3 cells at 100 mg/kg, po measured upto 24 hrs by LC-MS/MS analysis
Assay type: ADME, organism-based
assay-endpoint: concentration at 24 h
Your answer should be a number followed by the unit of measure.

Input: Please report the measured concentration at 24 h for "CC(C)(C)NS(=O)(=O)c1cccc(NC(=O)c2ncc(NS(C)(=O)=O)nc2N2CCC3(CC2)CC3)n1"
Output: 16 nM

###

Assay: Binding affinity to KIF18A- MT complex (unknown origin) by NMR based assay
Set-up: species or system Homo sapiens
assay-endpoint: Kd

Input: Please report the measured Kd for "C[C@H](NS(=O)(=O)c1cccc(NC(=O)c2ccc(NC(CO)CO)nc2N2CCC3(CC2)CC3)c1)C(F)(F)F"
Output: 150 nM
